- Format: in vitro ADME
- details: human plasma, 37° C., 10 μM start, prodrug remaining, 120 min
experimental_endpoint: [ ] (μM) t120 min. Prodrug (Human)

Query string: Find the recorded [ ] (μM) t120 min. Prodrug (Human) belonging to COc1ccc(-n2c(C(=O)N(C)C)c(OC(=O)C(C)C)c(OC(=O)C(C)C)c2C(=O)N(C)C)cc1 and report it.
Result string: 7.22 µM

Query string: Find the recorded [ ] (μM) t120 min. Prodrug (Human) belonging to CCOC(=O)c1c(OCOP(=O)(O)O)c(O)c(C(=O)N(C)C)n1-c1ccc(OC)cc1 and report it.
Result string: 2.98 µM

Query string: Find the recorded [ ] (μM) t120 min. Prodrug (Human) belonging to CCOC(=O)c1c(OC(=O)C(C)(C)COCCOCCOC)c(OC(=O)C(C)(C)COCCOCCOC)c(C(=O)N(C)C)n1-c1ccc(OC)cc1 and report it.
Result string: 0.00 µM

Query string: Find the recorded [ ] (μM) t120 min. Prodrug (Human) belonging to CCOC(=O)c1c(OC(=O)C(C)(C)COCCOCCOP(=O)(O)O)c(OC(=O)C(C)(C)COCCOCCOP(=O)(O)O)c(C(=O)N(C)C)n1-c1ccc(OC)cc1 and report it.
Result string: 1.12 µM

Query string: Find the recorded [ ] (μM) t120 min. Prodrug (Human) belonging to CCOC(=O)c1c(O)c(OCOP(=O)(O)O)c(C(=O)N(C)C)n1-c1ccc(OC)cc1 and report it.
Result string: 1.72 µM

Query string: Find the recorded [ ] (μM) t120 min. Prodrug (Human) belonging to CCOC(=O)c1c(O)c(OP(=O)(O)O)c(C(=O)N(C)C)n1-c1ccc(OC)cc1 and report it.
Result string: 7.48 µM

Query string: Find the recorded [ ] (μM) t120 min. Prodrug (Human) belonging to CCOC(=O)c1c(OC(=O)C(C)C)c(OC(=O)C(C)C)c(C(=O)N(C)C)n1-c1ccc(OCCOCCOCCOC)cc1 and report it.
Result string: 0.65 µM
